assay: chemical genetic growth profiling, strain panel (AID 1159580);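 note: tested at 20 µM; growth read once vehicle control cultures reached saturation at 30 °C; 1 = growth at the plate median or of vehicle wells; lower values mean less growth of the strain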; details: S. cerevisiae deletion strains, growth OD, locus YDR334W, strain swr1, active compounds read low
Among all 5,500 compounds or so, about 2,000 (36%) were called active. Not shown: some 18% with an inconclusive outcome. The list shows a part of the results.
Measure name: normalized growth

# Molecule, Measure name, Numeric readout
measured = [
    ("O=S(=O)(O)O", "normalized growth", 0.976),
    ("COC(=O)C(N)CS (stereo not given)", "normalized growth", 0.959),
    ("NC[C@H]1O[C@H](OC2[C@@H](N)C[C@@H](N)[C@H](O[C@H]3O[C@H](CO)[C@@H](O)[C@H](N)[C@H]3O)[C@H]2O)[C@H](O)[C@@H](O)[C@@H]1O (stereo not given in full)", "normalized growth", 0.988),
    ("NC[C@H]1O[C@H](O[C@H]2[C@H](O)[C@@H](O[C@H]3O[C@H](CO)[C@@H](O)[C@H](N)[C@H]3O)[C@H](N)C[C@@H]2N)[C@H](N)[C@@H](O)[C@@H]1O", "normalized growth", 0.985),
    ("NCCCN", "normalized growth", 0.962),
]

* * *

assay: chemical genetic growth profiling, strain panel (AID 1159580);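 note: tested at 20 µM; growth read once vehicle control cultures reached saturation at 30 °C; 1 = growth at the plate median or of vehicle wells; lower values mean less growth of the strain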; details: S. cerevisiae deletion strains, growth OD, locus YDL040C, strain nat1, active compounds read low
About 2,000 (36%) of roughly 5,500 compounds were called active. Not shown: some 18% with an inconclusive outcome. The list shows a part of the results.
Readings of normalized growth for the listed compounds

# Compound, normalized growth
rows = [
    ("C[C@H]1O[C@@H](O[C@H]2[C@@H](O)C[C@H](O[C@H]3[C@@H](O)C[C@H](O[C@H]4CC[C@]5(C)C6C[C@@H](O)[C@]7(C)[C@@H](C8=CC(=O)OC8)CC[C@]7(O)C6CC[C@@H]5C4)O[C@@H]3C)O[C@@H]2C)C[C@H](O)[C@@H]1O (stereo not given in full)", 0.999),
    ("COC1C(O)C(O[C@H]2CC[C@]3(C=O)C4C(CC[C@]3(O)C2)[C@@]2(O)CC[C@H](C3=CC(=O)OC3)[C@@]2(C)C[C@H]4OC(C)=O)OC(C)C1OC(C)=O (stereo not given in full)", 1.03),
    ("COC1CC(OC2CCC3(C)C(CCC4C3CCC3(C)C(C5=CC(=O)OC5)C(OC(C)=O)CC43O)C2)OC(C)C1O (stereo not given)", 1.01),
    ("C[C@H]1O[C@@H](O[C@H]2[C@@H](O)C[C@H](O[C@H]3[C@@H](O)C[C@H](O[C@H]4CC[C@]5(C)C6CC[C@]7(C)[C@@H](C8=CC(=O)OC8)CC[C@]7(O)C6CC[C@@H]5C4)O[C@@H]3C)O[C@@H]2C)C[C@H](O)[C@@H]1O (stereo not given in full)", 0.975),
    ("COc1ccc(-c2cc(=O)c3c(O)cc(O)c(-c4cc(-c5cc(=O)c6c(O)cc(O)cc6o5)ccc4OC)c3o2)cc1", 1.01),
]

* * *

experiment: chemical genetic growth profiling, strain panel (AID 1159580);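 note: tested at 20 µM; growth read once vehicle control cultures reached saturation at 30 °C; 1 = growth at the plate median or of vehicle wells; lower values mean less growth of the strain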; conditions: S. cerevisiae deletion strains, growth OD, locus YNL298W, strain CLA4 (second series), active compounds read low
Screen size: about 5,500 compounds; about 2,000 (36%) were called active. Not shown: some 18% with an inconclusive outcome. Some of the results follow.
Readings of normalized growth for the listed compounds

# Compound, normalized growth
measured = [
    ("O=C(NCCCCO)OCC1c2ccccc2-c2ccccc21", 0.929),
    ("Cc1ccc(OS(=O)(=O)c2ccc(Cl)cc2)c([N+](=O)[O-])n1", 0.915),
    ("Cc1onc(-c2ccccc2)c1C(=O)On1c(-c2ccccc2)nc2ccccc2c1=O", 0.816),
    ("COc1ccccc1N1CCN(C(=O)c2cccs2)CC1", 0.981),
    ("COc1ccccc1NC(=S)NCCC(=O)O", 1.02),
    ("CCN(CCS(=O)(=O)c1ccc(C)cc1)S(=O)(=O)c1ccccc1", 1.01),
    ("O=C(O)CCc1nc(-c2ccccc2)c(-c2ccccc2)o1", 1),
    ("COc1cc(NC(=S)N2CCN(c3ccccc3OC)CC2)c(OC)cc1Cl", 1),
    ("CCOC(=O)/C(C#N)=C/N=C(N/N=C\\c1c(Cl)cccc1Cl)SC", 0.795),
    ("O=[N+]([O-])c1cnc2ccccn12", 1.08),
    ("CNC(=S)N/N=C\\c1cc(Br)cc(Br)c1O", 0.311),
    ("COc1ccc(OC)c(CNC(=O)Cc2cccs2)c1", 1),
    ("O=C(Nc1ccc(Cl)cc1)N1CCN(c2ncccc2C(F)(F)F)CC1", 0.893),
    ("N#CCCN1C(=O)C2(OCCO2)c2ccccc21", 1),
    ("COc1ccccc1N1CCN(C(=O)C(C)Nc2ccccn2)CC1 (stereo unspecified)", 0.997),
    ("N#Cc1c(Cl)cccc1N1CCCC1", 0.762),
    ("COC(OC)c1ccc(C#N)c(=S)[nH]1", 1.02),
    ("OCC(O)Cn1c2ccccc2c2ccccc21 (stereo unspecified)", 0.984),
    ("COc1ccccc1N1CCN(C(=O)Nc2cc(Cl)cc(Cl)c2)CC1", 0.715),
    ("Cc1ccc(Cl)cc1NC(=S)N(CCC#N)/N=C\\c1ccc2c(c1)OCO2", 0.981),
    ("CCOC(=O)/C(C#N)=C/Nc1ccc2c(c1)OCO2", 0.905),
    ("c1ccc(-c2ncc3ccccn23)cc1", 0.95),
    ("O=C(O/N=C1/CCCc2[nH]c3ccccc3c21)c1ccc(Cl)cc1Cl", 0.796),
    ("CC(C)(C)C1=CC(=O)C=C(C(C)(C)C)C1=O", 1.03),
    ("Cc1ccc(NC(=O)CC#N)c(C)c1", 0.988),
    ("O=C1NC(=S)NC(=O)C1=Cc1cccc2ccccc12", 0.995),
]

Data provenance is PubChem BioAssay AID1159580.
